target-entity: MRSA PK (Staphylococcus aureus, UniProt Q6GG09)
Construct: His tag (pET-28a(+) vector) (N); made in house; host or cells: E. coli BL-21 (DE3)
Sequence (Q6GG09 whole entry): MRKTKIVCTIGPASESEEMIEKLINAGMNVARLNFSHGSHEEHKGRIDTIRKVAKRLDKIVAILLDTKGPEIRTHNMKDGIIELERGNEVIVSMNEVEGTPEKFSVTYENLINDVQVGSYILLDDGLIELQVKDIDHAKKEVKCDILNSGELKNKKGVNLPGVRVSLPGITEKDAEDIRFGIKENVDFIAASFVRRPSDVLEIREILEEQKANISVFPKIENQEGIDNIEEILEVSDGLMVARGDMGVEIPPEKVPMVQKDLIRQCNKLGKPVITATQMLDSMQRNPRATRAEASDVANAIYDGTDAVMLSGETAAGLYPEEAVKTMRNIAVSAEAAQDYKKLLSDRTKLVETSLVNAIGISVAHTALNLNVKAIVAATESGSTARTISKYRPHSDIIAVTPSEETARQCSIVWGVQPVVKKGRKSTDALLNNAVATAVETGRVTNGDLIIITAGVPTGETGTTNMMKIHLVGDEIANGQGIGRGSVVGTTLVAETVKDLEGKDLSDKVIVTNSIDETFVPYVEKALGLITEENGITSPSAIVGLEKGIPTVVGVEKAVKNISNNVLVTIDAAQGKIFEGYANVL
run-description: MRSA PK activity, continuous LDH-coupled assay
Assay type: biochemical, S. aureus (MRSA strain Sanger 252)
pIC50: −log10 of the molar value.
The following molecules are listed with their measured pIC50 values.

Consider the following illustrative entries.
[
  {
    "line-notation": "Clc1ccc(CCc2cc3ccc(Br)cc3[nH]2)cn1",
    "pIC50": "7.00 to 7.30"
  },
  {
    "line-notation": "Brc1cncc(/C=C/c2cc3ccc(Br)cc3[nH]2)c1",
    "pIC50": "< 6.00"
  }
]

Prompt: Which value of pIC50 has been reported for FC(F)(F)c1ccc(/C=C/c2cc3ccc(Br)cc3[nH]2)cc1 in the records?
Completion: 6.00 to 7.00

Prompt: Suppose we examine the molecule Brc1ccc2cc(C#Cc3ccccn3)[nH]c2c1 ; what pIC50 value has been reported?
Completion: < 6.00

Prompt: So what's the measured pIC50 for this one? Brc1ccc2cc(/C=C/c3cn4ccccc4n3)[nH]c2c1
Completion: > 7.30

Prompt: Given COC(=O)c1cc(Br)cc2[nH]c(-c3cc4c(C(=O)OC)cc(Br)cc4[nH]3)cc12 , state its recorded pIC50.
Completion: 7.00 to 7.30

Prompt: Recorded pIC50 of Fc1cc2cc(/C=C/c3ccc(Cl)cc3)[nH]c2cc1Br , please.
Completion: > 7.30

Prompt: Consider the molecule COC(=O)c1c(C#Cc2cc3cc(Cl)ccc3[nH]2)[nH]c2cc(Br)ccc12 and give its measured pIC50.
Completion: < 6.00

Prompt: Could you share which pIC50 value was measured for Brc1ccc2cc(/C=C/c3ccc4ccccc4n3)[nH]c2c1 ?
Completion: < 6.00

* * *

System: S. aureus ATCC 29213
run-description: In vitro susceptibility, broth microdilution MIC
Format: cell-based, Staphylococcus aureus
assay-context: Staphylococcus aureus, ATCC29213, Tables 1-6 and text; minimum concentration to give >98% inhibition of growth; read-out: MIC
endpoint-label: MIC

[
  {
    "compound": "Brc1ccc2[nH]c(/C=C/c3cc4ccc(Br)cc4[nH]3)cc2c1 [Compound 27c]",
    "endpoint-label": "MIC",
    "value": "> 64 µg/mL"
  }
]

Prompt: Using the record for O=C(Nc1nc2ccc(Br)cc2[nH]1)c1cc(Br)ccc1O [Compound 78] , report its MIC.
Completion: 4 µg/mL

Prompt: Which MIC is listed for Brc1ccc2cc(-c3ccc(-c4cc5ccc(Br)cc5[nH]4)cc3)[nH]c2c1 [Compound 33a, 1,4-bis(6-bromo-1H-indol-2-yl)benzene] ?
Completion: > 64 µg/mL

Prompt: If you can, please state the reported MIC value of Brc1ccc2cc(-c3nc4ccccc4s3)[nH]c2c1 [Compound 22a] .
Completion: > 64 µg/mL

Prompt: Reported MIC, compound Brc1ccc2[nH]c(CCc3cc4ccc(Br)cc4[nH]3)cc2c1 [Compound 28b] : ____
Completion: > 64 µg/mL

Prompt: So what does the record say about MIC for O=C(Nc1nc2ccc(Br)cc2s1)c1cccc(Br)c1O [Compound 70] ?
Completion: 4 µg/mL

Prompt: # get_value(readout='MIC', item= Cn1c(C#Cc2cc3cc(Br)ccc3[nH]2)cc2cc(Br)ccc21 [Compound 48] )
Completion: > 64 µg/mL

Prompt: Any idea what its MIC is? The compound is Brc1ccc2cc(-c3cc4cc(Br)c(Br)cc4[nH]3)[nH]c2c1 [Compound 10k, 5,6,6′-Tribromo-1H,1′H-2,2′-biindole]
Completion: 0.5 µg/mL

The origin of these recorded values is patent US20170216252A1.
